Assay: Phase 2 study preliminary plasma pharmacokinetics in PA/MMA subjects
Format: in vivo, human
Settings: human, plasma, oral, 1 mg/kg, 1 mg/kg QD, steady-state; individual subjects 010-1001, 010-1002; read-out: Cmax

# compound, Cmax (ng/mL)
measured = [
    ("CCC(C)(C)C(=O)O [Compound 5, 2,2-dimethylbutyric acid]", 4410),
]

====

Test: Phase 2 study preliminary plasma pharmacokinetics in PA/MMA subjects
Type: in vivo, human
Details: human, plasma, oral, 10 mg/kg, 10 mg/kg QD, steady-state; individual subjects 010-1001, 010-1002; read-out: Cmax
Method: Part A is the dose escalation phase to assess the initial safety and to confirm the pharmacologic activity of Compound 5 in subjects with PA and MMA. Screening for eligibility took place within 28 days of enrollment. All subjects were initially evaluated during a 4-week run-in period followed by within-subject dose escalation of 3 doses (1, 3, and 10 mg/kg QD of sodium 2,2-dimethylbutanoate); dose escalation interval of 4 weeks) to check for improvement in disease-related biomarkers. […]

# compoundStructureString, unitAbbrev, Cmax
data = [
    ("CCC(C)(C)C(=O)O", "µg/mL", 50.7),
]

====

Experiment: Phase 2 study preliminary plasma pharmacokinetics in PA/MMA subjects
Type: in vivo, human
Settings: human, plasma, oral, 10 mg/kg, 10 mg/kg QD, steady-state; 24 hours post-dose, individual subjects; read-out: C24

# compoundStructureString, concentration at 24 h (ng/mL)
measured = [
    ("CCC(C)(C)C(=O)O", 9090),
]

====

Assay: Phase 2 study preliminary plasma pharmacokinetics in PA/MMA subjects
Format: in vivo, human
Conditions: human, plasma, oral, 1 mg/kg, 1 mg/kg QD, single dose; individual subjects 010-1001, 010-1002; preliminary; read-out: Cmax
propertyMeasured: Cmax (ng/mL)

# compound, unitAbbrev, measuredNumber
records = [
    ("CCC(C)(C)C(=O)O [Compound 5, 2,2-dimethylbutyric acid]", "ng/mL", 2620),
]

====

Assay: Phase 2 study preliminary plasma pharmacokinetics in PA/MMA subjects
Type: in vivo, human
Conditions: human, plasma, oral, 10 mg/kg, 10 mg/kg QD, steady-state; individual subjects; read-out: AUC0-24 h

# molecule, AUC(0-t)
rows = [
    ("CCC(C)(C)C(=O)O [Compound 5, 2,2-dimethylbutyric acid]", "557 µg·h/mL"),
]
